biological target: Cellular tumor antigen p53 (Homo sapiens); experiment: TOX21_p53_BLA_p5_ratio: Tox21 HCT-116 p53 Agonism Beta-lactamase Assay, Ratio, Phase 5 (AID 2283599)
Inconclusive results are not listed. Active and inactive are the calls of the source. How the source made its calls: active means hit-call score of the fitted dose curve at least 0.9, where 1 is the maximum; inconclusive means response in the unintended direction; inactive means score below 0.9.
Returns: one label drawn from active, inactive

Worked examples follow.
• CCOC(=O)COC(=O)c1ccccc1C(=O)OCC = inactive
• CC/C(=C(\c1ccccc1)c1ccc(OCCN(C)C)cc1)c1ccccc1 = active
• CCOc1ccc(NC(C)=O)cc1 = inactive
• CC(C)(O)C(=O)c1ccc(OCCO)cc1 = inactive
• CC(=O)OC(C)(C)C1CC=C(C)CC1 (centres undefined) = inactive
• CC(O)CNCC(C)O (centres undefined) = inactive
• CC(=O)c1ccc2ccccc2c1 = inactive
• CCOC(=O)C(=O)OCC = inactive

Then there is this molecule:
Record lookup: outcome of this test for Nc1cc([N+](=O)[O-])ccc1C(=O)O ? inactive
